The reported measurements were obtained from paper PMC9736855.

- TARGET: STK3 (Homo sapiens)
- Construct: purchased in-house DSF panel (SGC Frankfurt)
- Sequence (Q13188 16-313): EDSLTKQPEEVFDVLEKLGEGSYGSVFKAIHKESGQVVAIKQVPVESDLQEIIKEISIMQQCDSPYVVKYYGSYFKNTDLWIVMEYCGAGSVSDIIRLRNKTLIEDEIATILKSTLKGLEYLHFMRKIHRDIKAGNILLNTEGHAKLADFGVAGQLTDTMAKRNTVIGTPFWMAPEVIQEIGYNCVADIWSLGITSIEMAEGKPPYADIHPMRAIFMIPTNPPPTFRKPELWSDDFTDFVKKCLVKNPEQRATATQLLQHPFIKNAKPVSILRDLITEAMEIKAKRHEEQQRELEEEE
- ASSAY INFO: DSF
- Type: binding
ΔTm STK3: recorded values
The reply should contain only the number, in °C.

molecule="COC(=O)c1cc(Nc2ccnc(NCc3ccc(NC(=O)OC(C)(C)C)cc3)n2)[nH]n1 [21i]" observed_value=1.2
molecule="CC(C)(C)OC(=O)Nc1ccc(CNc2nccc(Nc3cc(C(=O)OC(C)(C)C)[nH]n3)n2)cc1 [43d]" observed_value=0.3
molecule="CN[C@@H]1C[C@H]2O[C@@](C)([C@@H]1OC)n1c3ccccc3c3c4c(c5c6ccccc6n2c5c31)C(=O)NC4 [staurosporine, reference compound]" observed_value=16.6
molecule="COC(=O)c1cc(Nc2ccnc(NCCOCCNC(=O)OC(C)(C)C)n2)[nH]n1 [21d]" observed_value=1.6
molecule="N#CCc1ccc(Nc2nccc(Nc3cc(C4CC4)[nH]n3)n2)cc1 [compound 1, reference compound]" observed_value=11.6

Note: attention shifts to another entry.
Asked: Using known records, supply ΔTm STK3 for CC(C)OC(=O)c1cc(Nc2ccnc(NCc3ccc(NC(=O)OC(C)(C)C)cc3)n2)n[nH]1 [42d]
Given back: -1.0
